System: 280 human cancer cell lines
Method Summary: OncoPanel cell proliferation assay (10-day)
Format: cell-based
Condition Notes: Homo sapiens, SW872, SW872, Soft Tissue - Sarcoma; read-out: Cell Count EC50
EC50 reference

Would you please look over these solved cases?
{"Compound": "CC(C)=CCC[C@@H]1C(O)Oc2c(C)cc(O)c3c2[C@H]1CC[C@H]3C (stereo partly drawn) [Compound 2, 5,18-epoxyserrulat-14-en-8,18-diol]", "System": "280 human cancer cell lines", "EC50": "4.46 µM"}
{"Compound": "CC(C)=CCC[C@H](CO)[C@@H]1CC[C@@H](C)c2c1cc(C)c(O)c2O [Compound 1, 7,8,18-trihydroxyserrulat-14-ene]", "System": "280 human cancer cell lines", "EC50": "0.96 µM"}

Shift focus to the following entry.
Recorded EC50 for CC(C)=CCC[C@H](C)[C@@H]1CC[C@@H](C)c2c1cc(C)c(O)c2O [Compound 4, 7,8-dihydroxyserrulat-14-ene] , please?
4.39 µM
